- Test name: Concentration in lungs and tumors of H526 xenograft model
- Format: in vivo, mouse
- Experimental context: female, BALB/c nude, mouse, lung, oral, 3 mg/kg, Group 4, 3 mg/kg Q2D, 8h, mean; read-out: Mean Concentration in Lung
Parameter: concentration at 8 h (ng/g)
One number for each entry, in ng/g.

Problem: Report concentration at 8 h, nothing else, for this molecule: Cc1nnn(C)c1-c1cnc2c3c4cnn(C)c4ccc3n([C@H](c3ccccc3)C3CCOCC3)c2c1
Result: 244

* * *

- Test name: Metabolic stability assay, human liver microsomes
- Experimental context: human, liver microsomes, pH 7.4
Parameter: half-life at 1 µM (min)
Give bare numbers, in min.

Problem: Provide measured half-life at 1 µM value, entry: Cc1nnn(C)c1-c1cnc2c3c4cnn(C)c4ccc3n([C@H](c3ccccc3)C3CCOCC3)c2c1
Result: 27.6

* * *

- Test name: In vivo pharmacokinetics study, mouse
- Experimental context: male, BALB/c nude, plasma, iv, 1.75 mg/kg, IV 1.75 mg/kg, 2 h, individual mice, read-out: Plasma concentration
- Experimental: 4–6 weeks old female BALB/c nude mice were used for most experiments, with the exception of 6–8 weeks old female C57BL/6 mice were used for B16F10 experiments, and 6–8 weeks old male BALB/c nude mice and SD rats were used for pharmacokinetic experiments. […] Mouse body weight and tumor sizes were measured every 3 days. […] Ascitic volume and tumor weight were measured by an electronic balance. […] Concentration of drugs in plasma, lung and tumor tissues were measured for the indicated time. […]
Parameter: concentration at 2 h (ng/mL)
Answers are plain numbers, in ng/mL.

Problem: Quick one: give measured concentration at 2 h for Cc1nnn(C)c1-c1cnc2c3c4cnn(C)c4ccc3n([C@H](c3ccccc3)C3CCOCC3)c2c1
Result: 362

* * *

- Test name: In vivo pharmacokinetics study, rat
- Design: species or system SD rat
- Experimental context: male, SD, plasma, iv, 1 mg/kg, IV bolus, 0.25 h, individual animals, LLOQ 1.00 ng/mL, read-out: Plasma Conc.
Parameter: concentration at 0.25 h
Answer by giving the amount and then stating its unit.

Problem: Provide concentration at 0.25 h value for the following molecule: Cc1nnn(C)c1-c1cnc2c3c4cnn(C)c4ccc3n([C@H](c3ccccc3)C3CCOCC3)c2c1
Result: 259 ng/mL

* * *

- Test name: Concentration in lungs and tumors of H526 xenograft model
- Format: in vivo, mouse
- Experimental context: female, BALB/c nude, mouse, lung homogenate, oral, 3 mg/kg, Group 2, 3 mg/kg QD, 24h, individual animals, LLOQ 1 ng/mL; read-out: Analyte Concentration in Lung Homogenate
Parameter: concentration at 24 h (ng/mL)
Give bare numbers, in ng/mL.

Problem: Give a short answer stating reported concentration at 24 h for Cc1nnn(C)c1-c1cnc2c3c4cnn(C)c4ccc3n([C@H](c3ccccc3)C3CCOCC3)c2c1 .
Result: 1.12

* * *

- Test name: In vivo pharmacokinetics study, rat
- Parameters: species or system SD rat
- Experimental context: male, SD, plasma, iv, 1 mg/kg, IV 1 mg/kg
Parameter: half-life
Output should be the measured figure followed by the unit it is expressed in.

Problem: Name the recorded half-life of the compound listed here: Cc1nnn(C)c1-c1cnc2c3c4cnn(C)c4ccc3n([C@H](c3ccccc3)C3CCOCC3)c2c1 [NHWD-870]
Result: 55.2 min

* * *

- Test name: In vivo pharmacokinetics study, rat
- Set-up: species or system SD rat
- Experimental context: male, SD, plasma, IV 1 mg/kg
Parameter: MRT last (min)
Answers are plain numbers, in min.

Problem: Return the recorded MRT last value; entry: Cc1nnn(C)c1-c1cnc2c3c4cnn(C)c4ccc3n([C@H](c3ccccc3)C3CCOCC3)c2c1
Result: 58.8

* * *

- Test name: In vivo pharmacokinetics study, rat
- Parameters: species or system SD rat
- Experimental context: male, SD, plasma, iv, 1 mg/kg, IV bolus, 0.5 h, individual animals, LLOQ 1.00 ng/mL, read-out: Plasma Conc.
Parameter: concentration at 0.5 h (ng/mL)
Give bare numbers, in ng/mL.

Problem: Using the record for Cc1nnn(C)c1-c1cnc2c3c4cnn(C)c4ccc3n([C@H](c3ccccc3)C3CCOCC3)c2c1 , state its measured concentration at 0.5 h.
Result: 168

* * *

- Test name: MTS assay of non-cancerous cells
- Assay type: cell-based, human
- Experimental context: human, HaCAT cells (immortalized human keratinocytes), 24h; 16 nM; read-out: Cell viability (Sup Fig.4a)
Parameter: viability at 24 h, 0.016 µM (%)
One number for each entry, in %.

Problem: Using the record for Cc1nnn(C)c1-c1cnc2c3c4cnn(C)c4ccc3n([C@H](c3ccccc3)C3CCOCC3)c2c1 [NHWD-870] , state its measured viability at 24 h, 0.016 µM.
Result: 110

* * *

- Test name: in vitro
- Experimental context: human, microsomes, pH 7.4
Parameter: microsomal CLint at 1 µM
The number alone won't do; follow it with the unit.

Problem: Give me measured microsomal CLint at 1 µM, please, for this compound: Cc1nnn(C)c1-c1cnc2c3c4cnn(C)c4ccc3n([C@H](c3ccccc3)C3CCOCC3)c2c1
Result: 50.3 µL/min/mg

* * *

- Test name: Concentration in lungs and tumors of H526 xenograft model
- Assay type: in vivo, mouse
- Experimental context: female, BALB/c nude, mouse, tumor, oral, 1.5 mg/kg, Group 3, 1.5 mg/kg QD, 24h, mean; read-out: Mean Concentration in Tumor
Parameter: concentration at 24 h (ng/g)
Answers are plain numbers, in ng/g.

Problem: Look up and report measured concentration at 24 h for this entry: Cc1nnn(C)c1-c1cnc2c3c4cnn(C)c4ccc3n([C@H](c3ccccc3)C3CCOCC3)c2c1
Result: 20.2

* * *

- Test name: In vivo pharmacokinetics study, rat
- Design: species or system SD rat
- Experimental context: male, SD, plasma, IV 1 mg/kg
Parameter: C0 (ng/mL)
Numbers only, in ng/mL.

Problem: Please report the measured C0 for Cc1nnn(C)c1-c1cnc2c3c4cnn(C)c4ccc3n([C@H](c3ccccc3)C3CCOCC3)c2c1
Result: 441

* * *

- Test name: In vivo pharmacokinetics study, rat
- Parameters: species or system SD rat
- Experimental context: male, SD, plasma, PO 5 mg/kg
Parameter: AUC(0-t) (ng·h/mL)
Numbers only, in ng·h/mL.

Problem: Kindly indicate its recorded AUC(0-t). Item: Cc1nnn(C)c1-c1cnc2c3c4cnn(C)c4ccc3n([C@H](c3ccccc3)C3CCOCC3)c2c1
Result: 382

* * *

- Test name: In vivo pharmacokinetics study, mouse
- Experimental context: male, BALB/c nude, plasma, po, 5 mg/kg, PO 5 mg/kg, 1 h, mean of 3 mice, read-out: Plasma concentration, Mean
Parameter: concentration at 1 h (ng/mL)
Numbers only, in ng/mL.

Problem: Tell me concentration at 1 h reported for Cc1nnn(C)c1-c1cnc2c3c4cnn(C)c4ccc3n([C@H](c3ccccc3)C3CCOCC3)c2c1
Result: 449

* * *

- Test name: MTS assay of non-cancerous cells
- Type: cell-based, human
- Experimental context: human, HaCAT cells (immortalized human keratinocytes), 72h; 250 nM; read-out: Cell viability (Sup Fig.4b, 72h)
Parameter: viability at 72 h, 0.25 µM (%)
Answers are plain numbers, in %.

Problem: Note down viability at 72 h, 0.25 µM recorded for Cc1nnn(C)c1-c1cnc2c3c4cnn(C)c4ccc3n([C@H](c3ccccc3)C3CCOCC3)c2c1
Result: 78.9

* * *

- Test name: In vivo pharmacokinetics study, mouse
- Experimental context: male, BALB/c nude, plasma, po, 5 mg/kg, PO 5 mg/kg, 6 h, mean of 3 mice
Parameter: concentration at 6 h (ng/mL)
Numbers only, in ng/mL.

Problem: Give the reported concentration at 6 h for this compound. Cc1nnn(C)c1-c1cnc2c3c4cnn(C)c4ccc3n([C@H](c3ccccc3)C3CCOCC3)c2c1
Result: 169

* * *

- Test name: In vivo pharmacokinetics study, rat
- Set-up: species or system SD rat
- Experimental context: male, SD, plasma, iv, 1 mg/kg, IV bolus, 8 h, individual animals, LLOQ 1.00 ng/mL, read-out: Plasma Conc.
Parameter: concentration at 8 h (ng/mL)
Numbers only, in ng/mL.

Problem: Return the recorded concentration at 8 h value; entry: Cc1nnn(C)c1-c1cnc2c3c4cnn(C)c4ccc3n([C@H](c3ccccc3)C3CCOCC3)c2c1
Result: 1.09

* * *

- Test name: Metabolic stability assay, rat liver microsomes
- Experimental context: rat, liver microsomes, pH 7.4
Parameter: CLint scaled at 1 µM
Write the numeric value and append its unit.

Problem: Fill in reported CLint scaled at 1 µM for this entry: Cc1nnn(C)c1-c1cnc2c3c4cnn(C)c4ccc3n([C@H](c3ccccc3)C3CCOCC3)c2c1
Result: 92 mL/min/kg

* * *

- Test name: In vivo pharmacokinetics study, rat
- Set-up: species or system SD rat
- Experimental context: male, SD, plasma, PO 5 mg/kg
Parameter: MRT last (h)
One number for each entry, in h.

Problem: Could you please provide reported MRT last for Cc1nnn(C)c1-c1cnc2c3c4cnn(C)c4ccc3n([C@H](c3ccccc3)C3CCOCC3)c2c1 ? Thanks!
Result: 3
